# Tested on: Enterococcus sp.
# protocol: In vitro antibacterial evaluation: minimum inhibitory concentration (MIC), broth dilution method
# Type: cell-based
# testParameters: broth dilution, 18 hours at 35° C.
Numbered stars: 1 amine (or outer) side, 2 acyl side, 3 side chain; on linkers, the order of the positions; unused ones are H or OH. Square brackets hold non-standard residues; d marks the D form. Peptide text beside a SMILES is read from it. ξ: configuration not given here. X1 = N=C1NCC(C(O)C(N[*:1])C(=O)[*:2])N1C1OC(CO)C(O)C(O)C1O; ξEnduracididine(βξ-OH,4'ξ) = N=C1NCC(C(O)C(N)C(=O)O)N1; Cha = N[CH](CC1CCCCC1)C(=O)O
readoutKind: MIC Enterococcus faecalis (GC 2242) (µg/mL)
I only need the number, in µg/mL, no unit after it.

N=C1NCC(C(O)C2NC(=O)C(CC3CCCCC3)NC(=O)C(CC3CCCCC3)NC(=O)CNC(=O)C(CO)NC(=O)C(C(O)C3CNC(=N)N3C3OC(CO)C(O)C(O)C3O)NC2=O)N1 (stereo not drawn) [Example 52] (cyclo(G[Cha][Cha][ξEnduracididine(βξ-OH,4'ξ)][X1]S); configuration not given here): 32
COc1ccc(Oc2cccc(-c3nc4cc(CC5NC(=O)C(C(C)c6ccccc6)NC(=O)CNC(=O)C(CO)NC(=O)C(C(O)C6CNC(=N)N6C6OC(CO)C(O)C(O)C6O)NC(=O)C(C(O)C6CNC(=N)N6)NC5=O)ccc4o3)c2)cc1 (centres unmarked) [Example 35]: 16

// sample CC(=O)Nc1cc(CC2NC(=O)C(C(C)c3ccccc3)NC(=O)CNC(=O)C(CO)NC(=O)C(C(O)C3CNC(=N)N3C3OC(CO)C(O)C(O)C3O)NC(=O)C(C(O)C3CNC(=N)N3)NC2=O)ccc1O (centres unmarked) [Example 13] , its MIC Enterococcus faecalis (GC 2242) was 64

# MIC Enterococcus faecalis (GC 2242) of CC(c1ccccc1)C1NC(=O)CNC(=O)C(CO)NC(=O)C(C(O)C2CNC(=N)N2C2OC(CO)C(O)C(O)C2O)NC(=O)C(C(O)C2CNC(=N)N2)NC(=O)C(Cc2ccc3oc(-c4ccc(OCc5ccccc5)cc4)nc3c2)NC1=O (centres unmarked) [Example 31] = 64

Entry CC(c1ccccc1)C1NC(=O)CNC(=O)C(CO)NC(=O)C(C(O)C2CNC(=N)N2C2OC(CO)C(O)C(O)C2O)NC(=O)C(C(O)C2CNC(=N)N2)NC(=O)C(Cc2ccc3oc(-c4cccc([N+](=O)[O-])c4)nc3c2)NC1=O (centres unmarked) [Example 26] , MIC Enterococcus faecalis (GC 2242) reported as 64

====

# Assay type: in vivo
# testParameters: mice, 20 mg/kg intravenously daily for 9 days, serum on day 10
readoutKind: Clinical Chemistry (Day 10) % of Control, BUN

CC(c1ccccc1)C1NC(=O)CNC(=O)C(CO)NC(=O)C(C(O)C2CNC(=N)N2C2OC(CO)C(O)C(O)C2O)NC(=O)C(C(O)C2CNC(=N)N2)NC(=O)C(Cc2ccc(OC3OC(CO)C(OC4OC5COC6(OC5C(O)C4O)C4CC5CC(C4)CC6C5)C(O)C3O)cc2)NC1=O (stereo not shown) [Example 105]: +35%
N=C1NCC(C(O)C2NC(=O)C(Cc3ccc(OC4OC(CO)C(OC5OC6COC7(OC6C(O)C5O)C5CC6CC(C5)CC7C6)C(O)C4O)cc3)NC(=O)C(Cc3ccccc3)NC(=O)CNC(=O)C(CO)NC(=O)C(C(O)C3CNC(=N)N3C3OC(CO)C(O)C(O)C3O)NC2=O)N1 (stereo not shown) [Example 220]: 149%
COc1ccc2cc(COCC3OC(OC4C(CO)OC(Oc5ccc(CC6NC(=O)C(C(C)c7ccccc7)NC(=O)CNC(=O)C(CO)NC(=O)C(CC7CNC(=N)N7C7OC(CO)C(O)C(O)C7O)NC(=O)C(CC7CNC(=N)N7)NC6=O)cc5)C(O)C4O)C(O)C(O)C3O)ccc2c1 (stereo not shown) [Example 245]: +160%

With those in mind, consider the next compound.
Memo: CC(c1ccccc1)C1NC(=O)CNC(=O)C(CO)NC(=O)C(CC2CNC(=N)N2C2OC(CO)C(O)C(O)C2O)NC(=O)C(CC2CNC(=N)N2)NC(=O)C(Cc2ccc(OC3OC(CO)C(OC4OC(CO)C(O)C(O)C4O)C(O)C3O)cc2)NC1=O (stereo not shown) [Example 277a] , reported Clinical Chemistry (Day 10) % of Control, BUN: +110%

Data provenance is patent US8247211B2.
